EXPERIMENTAL_TARGET: Cellular tumor antigen p53 (Homo sapiens)
MEASUREMENT_PROTOCOL: TOX21_p53_BLA_p4_ratio: Tox21 HCT-116 p53 Agonism Beta-lactamase Assay, Ratio, Phase 4 (AID 2283601)
Inconclusive results are not listed. Calls of active or inactive are those of the source. The calls were made as follows: active = hit-call score of the fitted dose curve at least 0.9, where 1 is the maximum; inconclusive = response in the unintended direction; inactive = score below 0.9.
Outcomes: yes = active, no = inactive

* C=CCC1([C@H](C)CCC)C(=O)NC(=O)NC1=O | no
* CC[C@@H](CO)NC(=O)[C@@H]1C=C2c3cccc4[nH]cc(c34)C[C@H]2N(C)C1 | no
* CC(C)C(Nc1ccc(C(F)(F)F)cc1Cl)C(=O)OC(C#N)c1cccc(Oc2ccccc2)c1 (stereo not given) | no
* OC(c1ccc(F)cc1)(c1cncnc1)c1ccccc1Cl (stereo not given) | no
* c1cc[n+]2c(c1)-c1cccc[n+]1CC2 | no
* CC(=O)C1CCOC1=O (stereo not given) | no
* C1CCC2CCCCC2C1 (stereo not given) | no
* COP(N)(=S)Oc1ccccc1C(=O)OC(C)C (stereo not given) | no
* Cc1ccc(N)cc1C | no
* C[C@]12CC[C@@H]3c4ccc(OC(=O)N(CCCl)CCCl)cc4CC[C@H]3[C@@H]1CC[C@@H]2O | yes
* CC(C)C[C@H]1C(=O)N2CCC[C@H]2[C@]2(O)O[C@](NC(=O)[C@@H]3C[C@@H]4c5cccc6[nH]cc(c56)C[C@H]4N(C)C3)(C(C)C)C(=O)N12 | no
* CCOC(=S)S | no
* ClC(Cl)=C(Cl)Cl | no
* CC(=O)[O][Pb]([c]1ccccc1)([c]1ccccc1)[c]1ccccc1 | yes
* CCN(CC)c1c([N+](=O)[O-])cc(C(F)(F)F)c(N)c1[N+](=O)[O-] | no
* CCCC1CCCCN1 (stereo not given) | no
* Nc1ccc(Cl)c(Cl)c1 | no
* NNC(=O)c1cccnc1 | no
* CN1CCc2cc3c(cc2C1O)OCO3 (stereo not given) | yes
* CCC(C)Br (stereo not given) | no
* CC(C)(C)C(=O)CCl | no
* Nc1ccccc1C(=O)OCCc1ccccc1 | no
* Clc1c(Cl)c(Cl)c(Cl)c(Cl)c1Cl | no
* CCCC(C)(COC(N)=O)COC(N)=O | no
* COC1=CC(=O)O[C@@H](CCc2ccccc2)C1 | no
* COc1ccc(C(CN(C)C)C2(O)CCCCC2)cc1 (stereo not given) | no
* CNC(=O)NC(O)C(Cl)(Cl)Cl (stereo not given) | no
* Oc1cc(Cl)c(Cl)c(Cl)c1Cl | yes
* C#CC1(O)CCCCC1 | no
* CC1(C)[C@H](C(=O)O[C@H](C#N)c2cccc(Oc3ccccc3)c2)[C@@H]1C=C(Br)Br | no
* C[C@]12CC[C@H](O)C[C@H]1CC[C@@H]1[C@@H]2CC[C@]2(C)[C@@H](c3ccc(=O)oc3)C[C@H]3O[C@]132 | no
* CC(C)NCC(O)c1ccc(N)c(C#N)c1 (stereo not given) | no
* CC[C@H]1C[C@H]2[C@@H]3CCC4=CC(=O)CC[C@@H]4[C@H]3CC[C@]2(C)[C@H]1O | no
* CCOP(=S)(OCC)SC(CCl)N1C(=O)c2ccccc2C1=O (stereo not given) | no
* O=NN1CCCCC1 | no
* CCc1cc(OC)c(C[C@H](C)N)cc1OC | no
* Cl/C=C\Cl | no
* COc1ccc2c(c1OC)C(=O)O[C@H]2[C@@H]1c2cc3c(cc2CCN1C)OCO3 | no
* C=CC(=O)OCC(CC)CCCC (stereo not given) | no
* COC(=O)c1ccc(CBr)cc1 | no
* COc1cc(N)c(Cl)cc1C(=O)NC1CN2CCC1CC2 (stereo not given) | no
* CC(Cc1ccccc1)NCCn1cnc2c1c(=O)n(C)c(=O)n2C (stereo not given) | no
* C=CC[C@]1(O)CC[C@H]2[C@@H]3CCC4=CC(=O)CCC4=C3C=C[C@@]21C | no
* O=C1C(Cl)C(CCl)CN1c1cccc(C(F)(F)F)c1 (stereo not given) | no
* CC1CCC(C(C)C)C(OC(=O)c2ccccc2N)C1 (stereo not given) | no
* Cc1ncc2n1-c1ccc(Cl)cc1C(c1ccccc1F)=NC2 | no
* CC[C@H]1[C@@H]2C[C@H]3[C@@H]4N(C)c5ccccc5[C@]45C[C@@H](C2C5O)N3[C@@H]1O (stereo not given in full) | no
* C=C1CC[C@@]2(O)[C@H]3Cc4ccc(O)c5c4[C@@]2(CCN3CC2CC2)[C@H]1O5 | no
* O=C(CCl)C(Cl)Cl | yes
* CO[C@]12CC[C@@]3(C[C@@H]1[C@](C)(O)C(C)(C)C)[C@H]1Cc4ccc(O)c5c4[C@@]3(CCN1CC1CC1)[C@H]2O5 | yes
